Origin of the recorded values: BigSolDB 2.1

details: in n-butanol, 308.15 K
Where a SMILES comes first, the peptide text is derived from it. [ ]: non-standard residue; d: D form. pGlu = O=C1CC[C@@H](C(=O)O)N1; Thz = O=C(O)[C@@H]1CSCN1
experimental_readout: solubility (mole fraction)

>>> result_value("O=C1CC[C@@H](C(=O)N2CSC[C@H]2C(=O)O)N1 ([pGlu]-[Thz]-OH)")
0.000908

* * *

conditions: in DMF, 313.15 K
Where a SMILES comes first, the peptide text is derived from it. [ ]: non-standard residue; d: D form. pGlu = O=C1CC[C@@H](C(=O)O)N1; Thz = O=C(O)[C@@H]1CSCN1
experimental_readout: solubility (mole fraction)

>>> result_value("O=C1CC[C@@H](C(=O)N2CSC[C@H]2C(=O)O)N1 ([pGlu]-[Thz]-OH)")
0.0214

* * *

conditions: in water, 303.15 K
Where a SMILES comes first, the peptide text is derived from it. [ ]: non-standard residue; d: D form. pGlu = O=C1CC[C@@H](C(=O)O)N1; Thz = O=C(O)[C@@H]1CSCN1
experimental_readout: solubility (mole fraction)

>>> result_value("O=C1CC[C@@H](C(=O)N2CSC[C@H]2C(=O)O)N1 ([pGlu]-[Thz]-OH)")
0.00313

* * *

settings: in DMF, 288.15 K
Where a SMILES comes first, the peptide text is derived from it. [ ]: non-standard residue; d: D form. pGlu = O=C1CC[C@@H](C(=O)O)N1; Thz = O=C(O)[C@@H]1CSCN1
experimental_readout: solubility (mole fraction)

>>> result_value("O=C1CC[C@@H](C(=O)N2CSC[C@H]2C(=O)O)N1 ([pGlu]-[Thz]-OH)")
0.00734

* * *

settings: in acetonitrile, 288.15 K
Where a SMILES comes first, the peptide text is derived from it. [ ]: non-standard residue; d: D form. pGlu = O=C1CC[C@@H](C(=O)O)N1; Thz = O=C(O)[C@@H]1CSCN1
experimental_readout: solubility (mole fraction)

>>> result_value("O=C1CC[C@@H](C(=O)N2CSC[C@H]2C(=O)O)N1 ([pGlu]-[Thz]-OH)")
0.000426

* * *

settings: in methanol, 293.15 K
Where a SMILES comes first, the peptide text is derived from it. [ ]: non-standard residue; d: D form. pGlu = O=C1CC[C@@H](C(=O)O)N1; Thz = O=C(O)[C@@H]1CSCN1
experimental_readout: solubility (mole fraction)

>>> result_value("O=C1CC[C@@H](C(=O)N2CSC[C@H]2C(=O)O)N1 ([pGlu]-[Thz]-OH)")
0.00184

* * *

conditions: in ethanol, 278.15 K
Where a SMILES comes first, the peptide text is derived from it. [ ]: non-standard residue; d: D form. pGlu = O=C1CC[C@@H](C(=O)O)N1; Thz = O=C(O)[C@@H]1CSCN1
experimental_readout: solubility (mole fraction)

>>> result_value("O=C1CC[C@@H](C(=O)N2CSC[C@H]2C(=O)O)N1 ([pGlu]-[Thz]-OH)")
"8.3e-05"

* * *

settings: in acetonitrile, 293.15 K
Where a SMILES comes first, the peptide text is derived from it. [ ]: non-standard residue; d: D form. pGlu = O=C1CC[C@@H](C(=O)O)N1; Thz = O=C(O)[C@@H]1CSCN1
experimental_readout: solubility (mole fraction)

>>> result_value("O=C1CC[C@@H](C(=O)N2CSC[C@H]2C(=O)O)N1 ([pGlu]-[Thz]-OH)")
0.00052
